What protein stability index was measured for each of the following?
B1: FUT8 (parent)
chain: NWRYATGGWETVFRPVSETCTDRS

Variants of: B1
METHOD DESCRIPTION: protein stability index of a GFP-peptide fusion (GPS, HEK-293T) (PSI 1-6); higher = more stable;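 also: lentivirally expressed fusions sorted by FACS into six bins by GFP to DsRed ratio, PSI derived from sequencing read proportions per bin multiplied by bin number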
CONDITIONS USED: c terminus: a fixed tail appended
Format: numeric value only, no unit, no commentary.

Note to self: protein stability index recorded for `N1T` was 1.68

Notebook: `T19Y` , protein stability index read as 3.12

protein stability index for `R14H` is 1.12

Entry `N1V` , protein stability index reported as 1.83

# variant `P15N` ; its protein stability index = 1.95

Form: variant = `C20N` ; protein stability index = 2.6

Value of measured protein stability index for the entry `R23L` : 3.42

`V16E` yielded protein stability index of 1.59

Data point: `W2E` ; protein stability index = 3.94

// protein stability index lookup, variant = `C20S` , result: 1.75

Lab book: protein stability index of `T6V` noted as 2.11

`V16F` yielded protein stability index of 1.23

# protein stability index of `C20T` = 1.04

The variant listed as `R23G` has a reported protein stability index of 1.6

Given item `G7S` , the value recorded as its protein stability index is 1.97

Kindly note the recorded protein stability index for `V12N` , which is 1.97

The variant `T11H` showed protein stability index equal to 1.69

Query `D22T` yields protein stability index of 3.48

For record `P15I` the listed protein stability index is 2.35

Record `E18H` . Reported protein stability index: 1.51

The variant listed as `T21V` has a reported protein stability index of 1.9

Lab note: measured protein stability index of `P15D` was 3.23
